Molecular target: HMGCoA (3-Hydroxy-3-methylglutaryl CoA) Reductase (Rattus norvegicus, UniProt P51639)
Sequence (P51639 1-887): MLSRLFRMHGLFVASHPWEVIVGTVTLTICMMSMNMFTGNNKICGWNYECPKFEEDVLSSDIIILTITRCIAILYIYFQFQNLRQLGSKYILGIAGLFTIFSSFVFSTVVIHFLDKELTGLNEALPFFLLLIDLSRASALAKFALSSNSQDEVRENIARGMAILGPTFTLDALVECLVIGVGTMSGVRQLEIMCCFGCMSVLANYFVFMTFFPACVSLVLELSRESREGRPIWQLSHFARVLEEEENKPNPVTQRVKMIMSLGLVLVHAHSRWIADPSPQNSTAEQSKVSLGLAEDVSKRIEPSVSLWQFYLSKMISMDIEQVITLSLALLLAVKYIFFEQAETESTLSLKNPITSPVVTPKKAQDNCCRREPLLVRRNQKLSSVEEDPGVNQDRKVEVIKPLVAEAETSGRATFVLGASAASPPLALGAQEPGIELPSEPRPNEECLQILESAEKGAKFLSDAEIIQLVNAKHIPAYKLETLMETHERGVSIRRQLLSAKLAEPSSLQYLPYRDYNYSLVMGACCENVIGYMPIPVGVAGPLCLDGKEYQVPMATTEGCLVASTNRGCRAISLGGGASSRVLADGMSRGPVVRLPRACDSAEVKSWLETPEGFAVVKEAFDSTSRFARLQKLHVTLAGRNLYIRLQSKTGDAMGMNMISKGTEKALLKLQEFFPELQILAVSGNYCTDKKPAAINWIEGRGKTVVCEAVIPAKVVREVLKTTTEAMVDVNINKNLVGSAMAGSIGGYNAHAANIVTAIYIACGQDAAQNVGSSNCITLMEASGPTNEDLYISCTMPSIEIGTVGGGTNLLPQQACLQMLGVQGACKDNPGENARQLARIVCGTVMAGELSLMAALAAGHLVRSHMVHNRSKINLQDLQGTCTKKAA
Structures can show the parent of a compound that is named as a salt.
Exercise: state measured IC50 for each of the molecules provided.

Lookup: Bench note: what IC50 did CC(C)n1c(CC[C@@H](O)C[C@@H](O)CC(=O)[O-])c(-c2ccc(F)cc2)c(-c2ccccc2)c1C(=O)Nc1ccccc1.[Na+] [Example 1, Sodium Salt] show?
Found: 12 nM

Lookup: So what does the record say about IC50 for CC(C)n1c(CCC(O)CC(O)CC(=O)[O-])c(-c2ccc(F)cc2)c(-c2ccccc2)c1C(=O)Nc1ccc(C(=O)[O-])cn1.[Na+].[Na+] (stereo not drawn) [Example 25, di-sodium Salt] ?
Found: 0.61 nM

Lookup: Return reported IC50; argument: CC(C)n1c(CC[C@@H](O)C[C@@H](O)CC(=O)O)c(-c2ccc(F)cc2)c(-c2ccccc2)c1C(=O)Nc1ccc(F)cc1 [Example 6, Sodium Salt]
Found: 4.1 nM

* * *

Counter-ions that a name gives are not always drawn.
Give measured melting point for each item. Keep answers brief.

Lookup: Recorded melting point for CC(C)n1c(CC[C@@H](O)C[C@@H](O)CC(=O)[O-])c(-c2ccc(F)cc2)c(-c2ccc(F)cc2)c1C(=O)Nc1cccc(Cl)c1.[Na+] , please?
Found: 191 to 194 °C

Lookup: Please report the recorded melting point for COc1ccc([C@@H](C)NC(=O)c2c(-c3ccc(F)cc3)c(-c3ccc(F)cc3)c(CC[C@@H](O)C[C@@H](O)CC(=O)[O-])n2C(C)C)cc1.[Na+] .
Found: 225 to 227 °C

Lookup: For the compound shown here, CC(C)n1c(/C=C/[C@@H](O)C[C@@H](O)CC(=O)[O-])c(-c2ccc(F)cc2)c(-c2ccccc2)c1C(=O)NCc1cccc(C#N)c1.[Na+] , give the reported melting point.
Found: 208 to 210 °C

Lookup: Can you look up the measured melting point of CC(C)n1c(CC[C@@H](O)C[C@@H](O)CC(=O)O)c(-c2ccc(F)cc2)c(-c2ccccc2)c1C(=O)NCc1nc2ccccc2[nH]1 (as salt: sodium) for me?
Found: 234 to 236 °C (dec.)

Lookup: Name the reported melting point value associated with the compound CC(C)n1c(/C=C/[C@@H](O)C[C@@H](O)CC(=O)[O-])c(-c2ccc(F)cc2)c(-c2ccccc2)c1C(=O)Nc1cccc(S(N)(=O)=O)c1.[Na+]
Found: 225 to 227 °C

Lookup: // lookup melting point for CC(C)n1c(/C=C/[C@@H](O)C[C@@H](O)CC(=O)[O-])c(-c2ccc(F)cc2)c(-c2ccc(F)cc2)c1C(=O)Nc1cccc(C(=O)N(C)C)c1.[Na+]
Found: 210 to 214 °C

Lookup: For the compound COc1ccc([C@@H](C)NC(=O)c2c(-c3ccc(F)cc3)c(-c3ccc(F)cc3)c(/C=C/[C@@H](O)C[C@@H](O)CC(=O)[O-])n2C(C)C)cc1.[Na+] , what melting point is on record?
Found: 255 to 257 °C

Lookup: Look up melting point: CNC(=O)c1c(-c2ccccc2)c(-c2ccc(F)cc2)c(/C=C/[C@@H](O)C[C@@H](O)CC(=O)[O-])n1C(C)C.[Na+]
Found: 224 to 226 °C

Lookup: May I ask what melting point has been recorded for CC(C)n1c(CC[C@@H](O)C[C@@H](O)CC(=O)[O-])c(-c2ccc(F)cc2)c(-c2ccccc2)c1C(=O)NCc1ccc(C(=O)[O-])cc1.[Na+].[Na+] ?
Found: 255 to 260 °C

Lookup: # query: melting point of entry CC(C)n1c(/C=C/[C@@H](O)C[C@@H](O)CC(=O)[O-])c(-c2ccc(F)cc2)c(-c2ccc(F)cc2)c1C(=O)Nc1cccc(Cl)c1.[Na+]
Found: 229 to 230 °C

Lookup: Which melting point value is on record for COc1ccc([C@H](C)NC(=O)c2c(-c3ccc(F)cc3)c(-c3ccc(F)cc3)c(CC[C@@H](O)C[C@@H](O)CC(=O)[O-])n2C(C)C)cc1.[Na+] ?
Found: 227 to 229 °C

Lookup: // query melting point value for entry Cc1ccnc(NC(=O)c2c(-c3ccc(F)cc3)c(-c3ccc(F)cc3)c(C=O)n2C(C)C)n1
Found: 173 to 175 °C

Lookup: Need melting point of CC(C)n1c(C=C[C@H](O)C[C@@H](O)CC(=O)[O-])c(-c2ccc(F)cc2)c(-c2ccc(F)cc2)c1C(=O)Nc1ccc(CS(C)(=O)=O)cc1.[Na+] , thanks.
Found: 256 °C (dec.)

Lookup: What does the record list as melting point for CC(C)n1c(CC[C@@H](O)C[C@@H](O)CC(=O)[O-])c(-c2ccc(F)cc2)c(-c2ccccc2)c1C(=O)Nc1cccc(S(N)(=O)=O)c1.[Na+] ?
Found: 227 to 229 °C

Lookup: Record request: melting point value, item CC(C)OC(=O)c1ccc(CNC(=O)c2c(-c3ccccc3)c(-c3ccc(F)cc3)c(CC[C@@H](O)C[C@@H](O)CC(=O)[O-])n2C(C)C)cc1.[Na+]
Found: 199 to 201 °C

Lookup: Which melting point value belongs to CC(C)n1c(CC[C@@H](O)C[C@@H](O)CC(=O)O)c(-c2ccc(F)cc2)c(-c2ccccc2)c1C(=O)NCc1cn2c(n1)CCCC2 (as salt: sodium) ?
Found: 239 to 241 °C (dec.)

Lookup: Can you share its melting point? I mean this compound: CC(C)n1c(CC[C@@H](O)C[C@@H](O)CC(=O)[O-])c(-c2ccc(F)cc2)c(-c2ccccc2)c1C(=O)NCc1ccccc1.[Na+]
Found: 186 to 189 °C

Lookup: Any idea what its melting point is? The compound is Cc1cnc(CNC(=O)c2c(-c3ccccc3)c(-c3ccc(F)cc3)c(CC[C@@H](O)C[C@@H](O)CC(=O)O)n2C(C)C)cn1 (as salt: sodium)
Found: 184 to 188 °C

Lookup: Param item = CC(C)n1c(CC[C@@H](O)C[C@@H](O)CC(=O)[O-])c(-c2ccc(F)cc2)c(-c2ccccc2)c1C(=O)Nc1ccc(S(N)(=O)=O)cc1.[Na+] ; retrieve measured melting point.
Found: 265 to 267 °C

Lookup: Give its melting point value. Item: CC(C)n1c(CC[C@@H](O)C[C@@H](O)CC(=O)[O-])c(-c2ccc(F)cc2)c(-c2ccccc2)c1C(=O)NCc1ccc(C#N)cc1.[Na+]
Found: 178 to 180 °C

Lookup: Give its melting point value. Item: CC(C)n1c(CC[C@@H]2C[C@@H](O)CC(=O)O2)c(-c2ccc(F)cc2)c(-c2ccccc2)c1C(=O)Nc1ccc(C(=O)O)cn1
Found: 172 to 174 °C (dec.)

Lookup: Give its melting point value. Item: CC(C)n1c(CC[C@@H](O)C[C@@H](O)CC(=O)[O-])c(-c2ccc(F)cc2)c(-c2ccccc2)c1C(=O)N(c1ccccn1)c1ccccn1.[Na+]
Found: 223 to 225 °C (dec.)
